Origin of measurements: paper doi:10.1101/2021.08.25.457676

tested_target: D210A-APE1 (Homo sapiens, UniProt P27695 1-318, D210A)
Sequence (P27695 whole entry D210A): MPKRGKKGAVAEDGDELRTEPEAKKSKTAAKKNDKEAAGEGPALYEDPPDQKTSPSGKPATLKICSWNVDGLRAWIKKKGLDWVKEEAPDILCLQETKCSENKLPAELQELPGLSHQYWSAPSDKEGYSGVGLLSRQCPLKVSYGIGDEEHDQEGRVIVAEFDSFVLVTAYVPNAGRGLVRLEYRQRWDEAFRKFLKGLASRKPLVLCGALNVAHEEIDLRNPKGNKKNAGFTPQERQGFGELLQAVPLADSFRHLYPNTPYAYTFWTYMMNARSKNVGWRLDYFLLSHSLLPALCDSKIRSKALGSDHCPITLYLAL
measurement_notes: fluorescence anisotropy; 10 mM Mg2+, 50 mM K+; 20 mM Tris pH 7.4, 50 mM KOAc (or 140 mM K+ / 50 mM Li+), 0, 1 or 10 mM Mg(OAc)2, 1 mM DTT, 22 °C, 100 nM FAM-DNA, APE1 0-5000 nM
experimental_parameters: protein: recombinant; tags: His (pET28HIS-hAPE1); label: 5' FAM; intramolecular parallel G4 in K+; unfolded in Li+
pKd: −log10 of the molar value.
readout: pKd

binder	readout	recorded_measurement
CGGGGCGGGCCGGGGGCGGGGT (structured_DNA) [VEGF-4]	pKd	7.26
